- method_summary: HoxA9-arrested leukemia cell differentiation promoters – flow cytometry, MLPCN library, primary screen (AID 624256);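 further: cells exposed to compound for four days before flow analysis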
- study_conditions: ER-HoxA9 myeloid progenitors, lysozyme-GFP differentiation, at 10 µM; measured here: differentiation confirmed by MAC1 staining, stronger effect = higher value
Hit rate of the full screen: of about 360,000 compounds, about 3,700 (1%) were called active. Inconclusive results (about 2%) are left out. Shown is part of a subset that was picked to be rich in actives.
endpoint_name: GFP+ MAC1+ double positive (%)
Give your result in % as a bare value.

Output measured GFP+ MAC1+ double positive for this item: Cc1ccc(S(=O)(=O)NC(=O)COc2ccccc2C)cc1
0.4

Output measured GFP+ MAC1+ double positive for this item: CN(C)CCCOc1ccc(-c2ccc3nccn3c2)cn1
0.4

Output measured GFP+ MAC1+ double positive for this item: C=CCC[C@@H](CCCCC)OC(=O)/C=C/[C@@H](O)[C@H](O)C[C@H](O)CC=C
0.4

Output measured GFP+ MAC1+ double positive for this item: COc1ccc(-c2ccc(C(=O)NCCN3CCOCC3)c3occc23)c(C)c1
1

====

- method_summary: HoxA9-arrested leukemia cell differentiation promoters – flow cytometry, MLPCN library, primary screen (AID 624256);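 further: cells exposed to compound for four days before flow analysis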
- study_conditions: ER-HoxA9 myeloid progenitors, lysozyme-GFP differentiation, at 10 µM; measured here: differentiation confirmed by MAC1 staining, stronger effect = higher value
The campaign covered roughly 360,000 compounds. About 3,700 (1%) were called active. Inconclusive results (about 2%) are left out. The entries come from a sample that favours actives as a whole.
endpoint_name: GFP+ MAC1+ double positive (%)
Give your result in % as a bare value.

Output measured GFP+ MAC1+ double positive for this item: Cc1ccc(-n2nc3cc(C)c(NC(=O)c4cccnc4)cc3n2)cc1
5.5

Output measured GFP+ MAC1+ double positive for this item: COc1ccc(CN2CCC(C)(Oc3cccc(F)c3)C2)c2ccccc12 (stereo not given)
0.4

Output measured GFP+ MAC1+ double positive for this item: O=C(Nc1cccc(-n2cnnn2)c1)c1cccnc1
2

Output measured GFP+ MAC1+ double positive for this item: O=C(N[C@H]1CC[C@H](CC(=O)N2CCCCC2)O[C@@H]1CO)c1cccc(F)c1
1.6

Output measured GFP+ MAC1+ double positive for this item: COc1ccccc1C(=O)Nn1c(-c2cccs2)nc2ccccc2c1=O
0.5

Output measured GFP+ MAC1+ double positive for this item: Nc1nc(Nc2ccccc2F)nc(NC2CCCCC2)c1[N+](=O)[O-]
5.3

Output measured GFP+ MAC1+ double positive for this item: COc1cccc(CNC(=O)[C@@H]2CCCN2C(=O)[C@@H]2CCCN2C(=O)c2ccccc2)c1
0.5

Output measured GFP+ MAC1+ double positive for this item: Fc1cccc(Cc2c(-c3cccc(Cl)c3)nc3ccc(Br)cn23)c1
0.4

Output measured GFP+ MAC1+ double positive for this item: CCCc1nc2c3ccccc3ccn2c1Cc1ccccc1C(F)(F)F
1.1

Output measured GFP+ MAC1+ double positive for this item: COC(=O)[C@@]12C[C@@H](CC(=O)N3CCCCC3)C(=O)N(Cc3ccc4c(c3)OCO4)C1=CCC(C)(C)C2
1.1

Output measured GFP+ MAC1+ double positive for this item: O=C(COC(=O)c1ccccc1O)NCc1ccco1
0.8

Output measured GFP+ MAC1+ double positive for this item: CCC(c1nc2ccccc2[nH]1)n1c(=O)c(-c2cccs2)nc2ccccc21 (stereo not given)
2.5

Output measured GFP+ MAC1+ double positive for this item: Cc1ccc(S(=O)(=O)N2CCCCC2)cc1NC(=O)c1cccnc1
1.2

Output measured GFP+ MAC1+ double positive for this item: O=C(Nc1ccc(Cl)cc1)c1csc([C@H]2C[C@H](O)[C@@H](CO)O2)n1
0.4

Output measured GFP+ MAC1+ double positive for this item: O=C(CN1CCN(C(=O)c2ccco2)CC1)Nc1ccc(Cl)c(C(F)(F)F)c1
0.9

Output measured GFP+ MAC1+ double positive for this item: Cc1cccc(C)c1NC(=O)COC(=O)c1ccccc1O
0.5

Output measured GFP+ MAC1+ double positive for this item: CC1(C(=O)NS(=O)(=O)Cc2cccc(Cl)c2)CCN1C(=O)Cc1ccc(Cl)cc1Cl (stereo not given)
0.5

Output measured GFP+ MAC1+ double positive for this item: Cc1ccccc1S(=O)(=O)N1[C@@H](c2cccc(Cl)c2)C(C(=O)OC(C)(C)C)=CC[C@H]1c1ccc(Cl)cc1
0.4

Output measured GFP+ MAC1+ double positive for this item: CCc1ccc(C(=O)OCC(=O)Nc2cccc(S(=O)(=O)NC3=NCCCCC3)c2)cc1
0.1

Output measured GFP+ MAC1+ double positive for this item: CCN(C(=O)COC(=O)c1ccccc1O)c1cccc2ccccc12
0.7
